Assay: Drug metabolism in CD-1 mouse liver microsomes assessed as hydrolysis metabolite formation rate by LC-MS/MS analysis
Format: ADME
Property label: Vmax(app) (pmol/min/mg)

# Query smiles, Vmax(app) (pmol/min/mg)
rows = [
    ("CC(C)NC(=O)[C@H]1CC[C@@H](n2/c(=N/C(=O)c3cc(F)cc(F)c3)[nH]c3ccc(CN4CCC(C(C)(C)O)CC4)cc32)CC1", 5.12),
]

A. CC(C)NC(=O)[C@H]1CC[C@@H](n2/c(=N/C(=O)c3ccc(F)cc3)[nH]c3ccc(CN4CCC(C(C)(C)O)CC4)cc32)CC1
B. CC(C)NC(=O)[C@H]1CC[C@@H](n2/c(=N/C(=O)c3cccc(C(F)(F)F)c3)[nH]c3ccc(CN4CCC(C(C)(C)O)CC4)cc32)CC1
C. CC(C)NC(=O)[C@H]1CC[C@@H](n2/c(=N/C(=O)c3cc(F)cc(Cl)c3)[nH]c3ccc(CN4CCC(C(C)(C)O)CC4)cc32)CC1
Order field: Vmax(app) | Direction: descending (largest first) Give me the labels in the order the question wants.
A, B, C

The values you see were collected from ChEMBL document CHEMBL3526060.
